The measurements presented in this section are drawn from patent US10059720B2.

Target: IRAP (Rattus norvegicus (Rat))
Assay: Inhibition of IRAP activity (AVP degradation by rat epididymal fat pad microsomes, MALDI-MS)
Settings: read-out: IRAP IC50; rat fat pad microsomes, AVP 25 μM, 1 h at 37° C.
pIC50: −log10 of the molar value.
The compounds listed here are annotated with their pIC50.
READOUT_LABEL: pIC50

| COMPOUND | MEASUREMENT |
| --- | --- |
| N[C@@H](COC1CCCCC1)[C@](O)(Cc1cc(OCCC2CC2)ccn1)C(=O)O | 7.48 |
| CS(=O)(=O)c1ccc(-c2ccc([C@H](N)[C@](O)(Cc3cc(OC4CCCCC4)ccn3)C(=O)O)cc2)cc1 | 9.38 |
| C[C@H]1CC[C@H](Oc2ccnc(C[C@](O)(C(=O)O)[C@@H](N)Cn3cccn3)c2)CC1 | 6.96 |
| COCc1ccc([C@H](N)[C@](O)(Cc2cc(OC3CCCCC3)ccn2)C(=O)O)cc1 | 7.85 |
| N[C@@H](c1ccc(S(=O)(=O)C2CC2)cc1)[C@](O)(Cc1cc(OC2CCCCC2)ccn1)C(=O)O | 8.21 |
| CC(C)C[C@H](N)[C@](O)(Cc1cc(O)ccn1)C(=O)O | 6.70 |
| COCCCCC[C@H](N)[C@](O)(Cc1cc(OC2CCCCC2)ccn1)C(=O)O | 8.92 |
| NC(COc1ccccc1Br)C(O)(Cc1cc(OC2CCCCC2)ccn1)C(=O)O (centres unmarked) | 7.82 |

###

Target: IRAP (Rattus norvegicus (Rat), UniProt P97629)
Sequence (P97629 whole entry): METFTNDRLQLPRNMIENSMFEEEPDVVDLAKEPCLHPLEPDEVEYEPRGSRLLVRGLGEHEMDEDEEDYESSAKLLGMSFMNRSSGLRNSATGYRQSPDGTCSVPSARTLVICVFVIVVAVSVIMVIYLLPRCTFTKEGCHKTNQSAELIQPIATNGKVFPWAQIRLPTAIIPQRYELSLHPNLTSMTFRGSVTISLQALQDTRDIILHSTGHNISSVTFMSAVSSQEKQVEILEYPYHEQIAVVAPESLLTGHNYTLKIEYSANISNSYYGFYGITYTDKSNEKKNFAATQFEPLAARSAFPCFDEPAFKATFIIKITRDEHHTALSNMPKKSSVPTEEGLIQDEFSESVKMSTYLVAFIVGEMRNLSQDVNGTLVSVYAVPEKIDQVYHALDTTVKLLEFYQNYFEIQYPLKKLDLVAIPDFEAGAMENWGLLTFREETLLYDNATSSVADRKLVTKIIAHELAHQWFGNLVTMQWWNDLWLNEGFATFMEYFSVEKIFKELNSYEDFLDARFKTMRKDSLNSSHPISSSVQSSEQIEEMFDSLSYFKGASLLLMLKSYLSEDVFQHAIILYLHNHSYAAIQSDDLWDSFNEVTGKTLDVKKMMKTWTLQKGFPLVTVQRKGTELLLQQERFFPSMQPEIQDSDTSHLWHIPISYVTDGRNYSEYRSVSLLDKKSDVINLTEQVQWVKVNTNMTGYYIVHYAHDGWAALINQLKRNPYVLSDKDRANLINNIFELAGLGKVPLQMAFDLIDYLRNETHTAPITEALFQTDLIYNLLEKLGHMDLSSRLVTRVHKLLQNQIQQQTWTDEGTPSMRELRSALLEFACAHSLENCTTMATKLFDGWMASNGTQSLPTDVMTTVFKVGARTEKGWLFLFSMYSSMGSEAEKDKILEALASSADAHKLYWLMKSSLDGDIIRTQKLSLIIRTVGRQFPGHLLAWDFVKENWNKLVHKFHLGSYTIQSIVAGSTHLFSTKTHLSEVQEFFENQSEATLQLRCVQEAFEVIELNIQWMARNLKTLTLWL
Experiment: Inhibition of IRAP activity (AVP degradation by rat epididymal fat pad microsomes, MALDI-MS)
Details: read-out: IRAP IC50; rat fat pad microsomes, AVP 25 μM, 1 h at 37° C.
pIC50: −log10 of the molar value.
Given measured pIC50, output T if it is greater than or equal to 8 and F if not.

| COMPOUND | TARGET_DESC | CLASS_LABEL |
| --- | --- | --- |
| COc1cc(C[C@](O)(C(=O)O)[C@@H](N)CC(C)C)ncc1Br [Example 53] | IRAP (Rattus norvegicus (Rat), UniProt P97629) | F |
| N[C@@H](COCCC(F)(F)F)[C@](O)(Cc1cc(OC2CCCCC2)ccn1)C(=O)O [Example 74] | IRAP (Rattus norvegicus (Rat), UniProt P97629) | T |
| COc1cc(F)cc(OC[C@H](N)[C@](O)(Cc2cc(OC3CCCCC3)ccn2)C(=O)O)c1 [Example 31] | IRAP (Rattus norvegicus (Rat), UniProt P97629) | F |
| COc1cccc(Oc2ccnc(C[C@](O)(C(=O)O)[C@@H](N)CC(C)C)c2)c1 [Example 101] | IRAP (Rattus norvegicus (Rat), UniProt P97629) | F |

###

Target: IRAP (Rattus norvegicus (Rat))
Assay: Inhibition of IRAP activity (AVP degradation by rat epididymal fat pad microsomes, MALDI-MS)
Details: read-out: IRAP IC50; rat fat pad microsomes, AVP 25 μM, 1 h at 37° C.
Structures can show the parent of a compound that is named as a salt.
Listed below: IC50 values for each entry.

| COMPOUND | UNIT_NAME | IC50 |
| --- | --- | --- |
| CC(C)C[C@H](N)[C@](O)(Cc1cc(OCCOC2CCCCC2)ccn1)C(=O)O | nM | 2.8 |
| N[C@@H](c1ccc(-c2ccccc2)cc1)[C@](O)(Cc1cc(OC2CCCCC2)ccn1)C(=O)O | nM | 4.9 |
| CC(C)CC[C@H](N)[C@](O)(Cc1cc(OC2CCCCC2)ccn1)C(=O)O | nM | 1.9 |
| N[C@@H](COCc1ccccc1)[C@](O)(Cc1cc(OC2CCCCC2)ccn1)C(=O)O | nM | 13 |
| COc1cc(C[C@](O)(C(=O)O)[C@@H](N)CC(C)C)ncc1COCc1ccccc1 | nM | 130 |
| CC(C)C[C@H](N)[C@@]1(Cc2cc(O[C@H]3CC[C@H](C)CC3)ccn2)OC(C)(C)OC1=O [Example 8, dihydrochloride] | nM | 170 |
| CC(C)C[C@H](N)[C@](O)(Cc1cc2c(cn1)ncn2CCC1CCCCC1)C(=O)O | nM | 2.5 |
| N[C@@H](c1ccc(C2CC2)cc1)[C@](O)(Cc1cc(OC2CCCCC2)ccn1)C(=O)O | nM | 8.2 |
